- ASSAY_DETAILS: Clinical trial APD356-016: plasma and urine pharmacokinetics of lorcaserin, M1 and M5 after a 10 mg dose in subjects with renal impairment
- CONDITION_LABEL: human, plasma, oral, 10 mg, MRTinf, 10 mg dose; Mild; ideal BW groups
- Description: The interaction of renal insufficiency with the pharmacokinetics, tolerability and safety of lorcaserin were evaluated in a formal PK study in subjects with renal impairment and in the populations studied in phase 2 and phase 3 clinical studies. The pharmacokinetic properties of lorcaserin in subjects with varying degrees of renal impairment were evaluated in clinical trial APD356-016. […]
QUANTITY_MEASURED: MRT inf (h)
Respond numerically; units are h and should not be typed.

Prompt: Which value of MRT inf has been reported for `C[C@H]1CNCCc2ccc(Cl)cc21` in the records?
Completion: 18

---

- ASSAY_DETAILS: Clinical trial APD356-016: plasma and urine pharmacokinetics of lorcaserin, M1 and M5 after a 10 mg dose in subjects with renal impairment
- CONDITION_LABEL: human, plasma, oral, 10 mg, Vz/F, 10 mg dose; Severe N = 1; actual BW groups
QUANTITY_MEASURED: Vd/F (L)
Output spec: scalar in L, unitless text.

Prompt: Entry `C[C@H]1CNCCc2ccc(Cl)cc21` has what Vd/F?
Completion: 479

---

- ASSAY_DETAILS: Clinical trial APD356-016: plasma and urine pharmacokinetics of lorcaserin, M1 and M5 after a 10 mg dose in subjects with renal impairment
- CONDITION_LABEL: human, plasma, oral, 10 mg, AUC0-inf, 10 mg dose; Severe; ideal BW groups
- Procedure: The interaction of renal insufficiency with the pharmacokinetics, tolerability and safety of lorcaserin were evaluated in a formal PK study in subjects with renal impairment and in the populations studied in phase 2 and phase 3 clinical studies. The pharmacokinetic properties of lorcaserin in subjects with varying degrees of renal impairment were evaluated in clinical trial APD356-016. […]
QUANTITY_MEASURED: AUC0-inf
Record the result as number plus unit.

Prompt: Bench note: what AUC0-inf did `C[C@H]1CNCCc2ccc(Cl)cc21` show?
Completion: 486 ng·h/mL

---

- ASSAY_DETAILS: Clinical trial APD356-016: plasma and urine pharmacokinetics of lorcaserin, M1 and M5 after a 10 mg dose in subjects with renal impairment
- CONDITION_LABEL: human, plasma, oral, 10 mg, tmax, 10 mg dose; Moderate; actual BW groups; median
QUANTITY_MEASURED: tmax (h)
Only the number, expressed in h, is required.

Prompt: Would you kindly share the measured tmax for `C[C@H]1CNCCc2ccc(Cl)cc21` ?
Completion: 2.5

---

- ASSAY_DETAILS: Clinical trial APD356-016: plasma and urine pharmacokinetics of lorcaserin, M1 and M5 after a 10 mg dose in subjects with renal impairment
- CONDITION_LABEL: human, plasma, oral, 10 mg, tmax, 10 mg dose; Mild; ideal BW groups; median
QUANTITY_MEASURED: tmax (h)
Answer with a number only, understood to be in h.

Prompt: Requested field: tmax. Item: C[C@H]1CNCCc2ccc(Cl)cc21 [Lorcaserin]
Completion: 4.5

---

- ASSAY_DETAILS: Clinical trial APD356-016: plasma and urine pharmacokinetics of lorcaserin, M1 and M5 after a 10 mg dose in subjects with renal impairment
- CONDITION_LABEL: human, plasma, oral, 10 mg, AUC0-t, 10 mg dose; Moderate; ideal BW groups
QUANTITY_MEASURED: AUC(0-t) (ng·h/mL)
Write the value in ng·h/mL as a bare number.

Prompt: Quick one: AUC(0-t) for `C[C@H]1CNCCc2ccc(Cl)cc21` ?
Completion: 515
